Experiment: Tariquidar or elacridar concentrations in plasma and brain by LC/MS
Assay type: in vivo
Conditions: rat, brain, intravenous, 3 mg/kg
quantityKind: concentration at 210 min (µg/mL)
State the answer as a number, implicitly in µg/mL.

# input Fill in reported concentration at 210 min for this entry: COc1cc2c(cc1OC)CN(CCc1ccc(NC(=O)c3cc(OC)c(OC)cc3NC(=O)c3cnc4ccccc4c3)cc1)CC2 [tariquidar, Tariquidar dimesylate]
# output 0.457

====

Assay: Tariquidar or elacridar concentrations in plasma and brain by LC/MS
Format: in vivo
Conditions: rat, brain, intravenous, 15 mg/kg
quantityKind: concentration at 180 min (ng/mL)
Express it in ng/mL; write the number only.

# input Consider the compound COc1cc2c(cc1OC)CN(CCc1ccc(NC(=O)c3cc(OC)c(OC)cc3NC(=O)c3cnc4ccccc4c3)cc1)CC2 [tariquidar, Tariquidar dimesylate] and give its recorded concentration at 180 min.
# output 6450
